Target: T1, FZD10 CRD (Homo sapiens, UniProt Q9ULW2)
T1 construct: 30-156; GPI anchor signal (C); expressed in transfected cells; host or cells: CHO cells, lentiviral pLenti-puro
T1 sequence (Q9ULW2 30-156): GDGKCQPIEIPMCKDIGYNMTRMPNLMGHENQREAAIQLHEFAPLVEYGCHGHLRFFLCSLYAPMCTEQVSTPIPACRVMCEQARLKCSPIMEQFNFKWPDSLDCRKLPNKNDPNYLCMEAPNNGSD
Test: Immunofluorescence of anti-FZD5 Fab binding to CHO cells overexpressing Frizzled CRD
Parameters: key: −: no binding; +: very weak binder; ++: weak binder; +++: good binder; ++++: very good binder
metric: Immunofluorescence binding, Frizzled CRD overexpressed on CHO cells: FZD10

| molecule | result |
| --- | --- |
| Fab-2911: anti-FZD5 Fab with antibody variable region Fv-2911; CDR SEQ ID NOs: 35, 36, 50, 89, 126, 163 (antibody, V domains shown) VH: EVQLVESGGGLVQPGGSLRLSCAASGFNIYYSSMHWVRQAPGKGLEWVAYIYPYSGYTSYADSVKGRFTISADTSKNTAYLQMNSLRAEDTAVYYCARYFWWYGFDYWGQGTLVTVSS VL: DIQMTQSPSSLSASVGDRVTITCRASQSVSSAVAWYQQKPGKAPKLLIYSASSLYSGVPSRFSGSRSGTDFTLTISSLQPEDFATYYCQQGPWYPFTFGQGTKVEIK | − |
| Fab-2935: anti-FZD5 Fab with antibody variable region Fv-2935; CDR SEQ ID NOs: 35, 36, 74, 111, 150, 178 (antibody, V domains shown) VH: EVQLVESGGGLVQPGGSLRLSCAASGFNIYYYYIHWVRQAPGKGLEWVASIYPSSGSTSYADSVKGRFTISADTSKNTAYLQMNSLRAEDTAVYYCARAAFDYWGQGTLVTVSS VL: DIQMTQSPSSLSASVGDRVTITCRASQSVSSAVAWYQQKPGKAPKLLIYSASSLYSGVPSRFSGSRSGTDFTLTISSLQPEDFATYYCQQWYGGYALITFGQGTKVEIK | − |
| Fab-2910: anti-FZD5 Fab with antibody variable region Fv-2910; CDR SEQ ID NOs: 35, 36, 49, 88, 125, 162 (antibody, V domains shown) VH: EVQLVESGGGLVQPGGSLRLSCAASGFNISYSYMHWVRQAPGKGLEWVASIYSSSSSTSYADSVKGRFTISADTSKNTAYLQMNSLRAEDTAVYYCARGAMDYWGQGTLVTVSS VL: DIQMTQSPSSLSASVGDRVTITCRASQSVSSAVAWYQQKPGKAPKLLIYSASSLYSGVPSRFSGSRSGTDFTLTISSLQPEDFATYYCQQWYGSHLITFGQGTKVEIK | − |
